System: AP-1
Assay: Cellular transrepression assay (AP-1 luciferase reporter in A549 cells, PMA activated)
Type: cell-based
Details: 7 h, 10 ng/ml PMA, read-out: AP-1 (EC50, nM) (measured in cellular transrepression assay)
Note to self: use Y only for EC50 readings below 70 nM; a reading exactly at 70 nM still gets N.

Examples with answers:
In [3]: df
Out[3]:
                                   compound  test_target  classification
0  Cc1ccc2c(n1)Oc1nc(-c3ccc([S+]([O-])C(C)C)cc3)ccc1C2C(C)(C)C(=O)Nc1nncs1 (stereo in doubt) [Example 82]         AP-1               N
1  Cc1ccc2c(n1)Oc1nc(-c3ccc(C(C)(C)O)cc3)ccc1[C@H]2C(C)(C)C(=O)Nc1nncs1 [Example 89]         AP-1               Y
2  CCN(C)C(=O)c1ccc(-c2ccc3c(n2)Oc2nc(Cl)ccc2C3C(C)(C)C(=O)Nc2nncs2)cc1 (stereo not shown) [Example 59]         AP-1               Y
3  CC[S+]([O-])c1ccc(-c2ccc3c(n2)Oc2nc(C)ccc2C3C(C)(C)C(=O)Nc2nncs2)cc1 (stereo in doubt) [Example 81]         AP-1               N
4  CN(C)C(=O)c1ccc(-c2ccc3c(n2)Oc2ncccc2C3C(C)(C)C(=O)Nc2nncs2)cc1 (single isomer, unassigned) [Example 8]         AP-1               N

Given CN(C)C(=O)c1ccc(-c2ccc3c(n2)Oc2nc(N(C)C)ccc2C3C(C)(C)C(=O)Nc2nncs2)cc1 (stereo not shown) [Example 67] , is recorded EC50 strictly lower than 70 nM? Y

Given CN(C)C(=O)c1ccc(-c2ccc3c(n2)Oc2cnccc2C3C(C)(C)C(=O)Nc2nncs2)cc1 (stereo not shown) [Example 1] , is recorded EC50 strictly lower than 70 nM? N

Given CCN(C)C(=O)c1ccc(-c2ccc3c(n2)Oc2nc(C)ccc2C3C(C)(C)C(=O)Nc2nncs2)cc1 (stereo not shown) [Example 14] , is recorded EC50 strictly lower than 70 nM? N
